# Test system: Staphylococcus aureus 209P JC-1
# Experimental details: MIC by agar-dilution method, Staphylococcus aureus 209P JC-1
# Assay type: cell-based
# Condition info: read-out: MIC.
Where a name gives a salt, the structure may show the parent alone.
Measurement kind: MIC (µg/mL)

Please review the entries below; each comes with its answer.
• CO/N=C(\C(=O)NC1C(=O)N2C(C(=O)O)=C(/C=C/c3cnc(C)s3)CSC12)c1csc(N)n1 (stereo not shown) = 0.78
• CO/N=C(\C(=O)NC1C(=O)N2C(C(=O)O)=C(/C=C\c3scnc3Cl)CSC12)c1csc(N)n1 (stereo not shown) [Example 21, sodium salt] = 0.1
• CO/N=C(\C(=O)NC1C(=O)N2C(C(=O)O)=C(/C=C\c3sc(Cl)nc3Cl)CSC12)c1csc(N)n1 (stereo not shown) = 0.2
• CO/N=C(\C(=O)NC1C(=O)N2C(C(=O)O)=C(C=Cc3ccccc3F)CSC12)c1csc(N)n1 (mixture of isomers) = 0.2

A: CO/N=C(\C(=O)NC1C(=O)N2C(C(=O)O)=C(/C=C\c3scnc3C)CSC12)c1csc(N)n1 (stereo not shown)
B: CO/N=C(\C(=O)NC1C(=O)N2C(C(=O)O)=C(C=Cc3sc[n+](C)c3C)CSC12)c1csc(N)n1 (stereo not shown)
C: CO/N=C(\C(=O)NC1C(=O)N2C(C(=O)O)=C(/C=C/c3ccc([N+](=O)[O-])o3)CSC12)c1csc(N)n1 (stereo not shown)
Order field: MIC | Direction: descending (largest first) Returns: the labels listed in the requested order. C, B, A
(C: 6.25 µg/mL, B: 0.78 µg/mL, A: 0.2 µg/mL)

====

# Test system: Klebsiella pneumoniae PCI 602
# Experimental details: MIC by agar-dilution method, Klebsiella pneumoniae PCI 602
# Assay type: cell-based
# Condition info: PCI602, read-out: MIC.
Measurement kind: MIC (µg/mL)

Please review the entries below; each comes with its answer.
* CO/N=C(\C(=O)NC1C(=O)N2C(C(=O)O)=C(C=Cc3ccccc3F)CSC12)c1csc(N)n1 (mixture of isomers) | 3.13
* CO/N=C(\C(=O)NC1C(=O)N2C(C(=O)O)=C(/C=C/c3scnc3C)CSC12)c1csc(N)n1 (stereo not drawn) | 0.39
* CO/N=C(\C(=O)NC1C(=O)N2C(C(=O)O)=C(/C=C/c3cnc(C)s3)CSC12)c1csc(N)n1 (stereo not drawn) | 0.78
* CO/N=C(\C(=O)NC1C(=O)N2C(C(=O)O)=C(/C=C\c3cscn3)CSC12)c1csc(N)n1 (stereo not drawn) | 1.56

A: CO/N=C(\C(=O)NC1C(=O)N2C(C(=O)O)=C(/C=C\c3scnc3C)CSC12)c1csc(N)n1 (stereo not drawn)
B: CO/N=C(\C(=O)NC1C(=O)N2C(C(=O)O)=C(/C=C/c3ccc([N+](=O)[O-])o3)CSC12)c1csc(N)n1 (stereo not drawn)
When A and B are compared, which has the higher number for MIC? Provide the label of your selected option as the answer. B
(B: 3.13 µg/mL, A: 0.39 µg/mL)

====

# Test system: Proteus rettgeri GN 624
# Experimental details: MIC by agar-dilution method, Proteus rettgeri GN 624
# Assay type: cell-based
# Condition info: Providencia rettgeri, GN624, read-out: MIC.
Structures can show the parent of a compound that is named as a salt.
Measurement kind: MIC (µg/mL)

- CO/N=C(\C(=O)NC1C(=O)N2C(C(=O)O)=C(/C=C\c3scnc3Cl)CSC12)c1csc(N)n1 (stereo not drawn) [Example 21, sodium salt]: 1.56
- CO/N=C(\C(=O)NC1C(=O)N2C(C(=O)O)=C(/C=C/c3scnc3C)CSC12)c1csc(N)n1 (stereo not drawn): 0.39

A: CO/N=C(\C(=O)NC1C(=O)N2C(C(=O)O)=C(C=Cc3sc[n+](C)c3C)CSC12)c1csc(N)n1 (stereo not drawn)
B: CO/N=C(\C(=O)NC1C(=O)N2C(C(=O)O)=C(/C=C/c3cnc(C)s3)CSC12)c1csc(N)n1 (stereo not drawn)
C: CO/N=C(\C(=O)NC1C(=O)N2C(C(=O)O)=C(/C=C\c3cscn3)CSC12)c1csc(N)n1 (stereo not drawn)
D: CO/N=C(\C(=O)NC1C(=O)N2C(C(=O)O)=C(/C=C\c3cncs3)CSC12)c1csc(N)n1 (stereo not drawn)
Order field: MIC | Direction: descending (largest first) Returns: the labels listed in the requested order. C, D, A, B
(C: 6.25 µg/mL, D: 0.78 µg/mL, A: 0.39 µg/mL, B: 0.2 µg/mL)

Reference for the values: patent US4839350A
